Where do these numbers come from? They come from ChEMBL document CHEMBL4513143.

Tested on: Candida albicans
Details: 32 ug/mL
Description: Antifungal activity against Candida albicans ATCC 90028 (CO-ADD:FG_001); MIC in YNB media using NBS plates, by OD630
Results with a measured potency or affinity are listed apart.
Field: Inhibition. Provide a value for each of the molecules that follow.
Answer shape: numeric part, then the unit.

Query block: Find the measured Inhibition of CCN(CC)CC.C[C@H](CC1O[C@H]([C@H](O)CO)[C@@H](O)[C@H](O)[C@@H]1O)OP(=O)(O)OC[C@H]1O[C@@H](n2cnc3c(N)ncnc32)[C@H](O)[C@@H]1O (some centres undefined) and report it.
Result block: 2.8%

Query block: Find the measured Inhibition of OC[C@@H](O)[C@H]1OC(O)C[C@@H](O)[C@@H]1O (some centres undefined) and report it.
Result block: 4.53%

Query block: Find the measured Inhibition of CCN(CC)CC.O=P(O)(O)OC1C[C@@H](O)[C@H](O)[C@@H]([C@H](O)CO)O1 (some centres undefined) and report it.
Result block: 2.93%

Query block: Find the measured Inhibition of CCN(CC)CC.C[C@@H](CC1O[C@H]([C@@H](O)CO)[C@@H](O)[C@H](O)[C@@H]1O)OP(=O)(O)O (some centres undefined) and report it.
Result block: 0.34%
